Hey, just so you know, these numbers are from patent US20170197980A1.

assay: Solubility in organic solvents, potency measurement by HPLC; assay type: physicochemical; details: organic solvent or mixture
value-kind: solubility

Lab note: Cc1ccc(S(=O)(=O)O)cc1.Nc1ncc(-c2cnn(CCO)c2)c2scc(-c3ccc(NC(=O)Nc4cccc(F)c4)cc3)c12 [tosylate salt] gave solubility of > 25 mg/mL
